test system: H3K18Ac in HB-CLS-2 cells; assay: H3K18AC in-cell western (ICW) assay; format: cell-based; conditions: H3K18Ac in-cell western, HB-CLS-2 cells; read-out: CREBBP ICW IC50
Examples of compounds with documented pIC50 follow.
Quick note: pIC50 values are minus log10 of concentrations in mol/L.

Here's what some known entries look like.
{"columns": ["Compound", "Assayed target", "pIC50"],
 "data": [
  ["CCn1ncc(CN(C)C(=O)c2cc(-c3ccc(OCCCNC)c(C)n3)nc3ccc(Cl)cc23)c1C", "H3K18Ac in HB-CLS-2 cells", 6.16],
  ["CCn1ncc(CN(C)C(=O)c2nc(-c3cnn(CC4CCCN4)c3)nc3ccc(Cl)cc23)c1C (centres unmarked)", "H3K18Ac in HB-CLS-2 cells", 4.70]
]}

Data request, read-out pIC50, for CCn1ncc(CN(C)C(=O)c2nc(-c3cn(CCNC)cn3)nc3ccc(Cl)cc23)c1C
4.70

I am curious: what pIC50 value has been reported for CCc1cc(CNC)cc(-c2nc(C(=O)N(C)Cc3cnn(CC)c3C)c3cc(Cl)ccc3n2)c1 ?
6.28

Which pIC50 value belongs to CCn1ncc(CN(C)C(=O)c2nc(-c3ccccc3C#N)nc3ccc(Cl)cc23)c1C ?
6.24

---

molecular target: CREBBP (1084-1701) (Homo sapiens, UniProt Q92793); construct: measured in the following biochemical assay using CREBBP (1084-1701); purchased; assay: Biochemical assay for CREBBP (1084-1701), SAMDI; conditions: SAMDI, read-out: CREBBP Biochemistry IC50
Sequence (Q92793 1084-1701): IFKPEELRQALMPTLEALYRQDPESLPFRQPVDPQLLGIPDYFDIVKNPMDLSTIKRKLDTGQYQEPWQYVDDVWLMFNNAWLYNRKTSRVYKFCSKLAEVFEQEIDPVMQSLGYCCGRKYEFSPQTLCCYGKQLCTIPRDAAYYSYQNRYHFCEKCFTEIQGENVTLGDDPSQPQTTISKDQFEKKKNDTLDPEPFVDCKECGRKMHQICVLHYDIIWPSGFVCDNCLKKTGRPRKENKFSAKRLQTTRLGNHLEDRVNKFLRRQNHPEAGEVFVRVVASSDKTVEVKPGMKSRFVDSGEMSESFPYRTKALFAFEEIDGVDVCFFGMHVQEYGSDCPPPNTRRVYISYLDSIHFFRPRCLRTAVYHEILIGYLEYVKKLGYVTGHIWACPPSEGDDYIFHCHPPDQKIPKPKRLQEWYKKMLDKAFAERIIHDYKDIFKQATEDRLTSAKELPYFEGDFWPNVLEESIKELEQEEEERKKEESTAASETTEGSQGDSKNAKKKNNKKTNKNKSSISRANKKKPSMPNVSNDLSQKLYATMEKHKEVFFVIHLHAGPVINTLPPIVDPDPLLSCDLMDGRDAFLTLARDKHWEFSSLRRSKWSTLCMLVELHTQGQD
pIC50: −log10 of the molar value.
Each record's class is read off its pIC50 using these ranges: class A = under 6, class B = from 6 up to 7, class C = 7 and over

A selection of reference data follows.
{"columns": ["Molecule", "Class assignment"],
 "data": [
  ["CCn1ncc(CN(C)C(=O)c2nc(-c3cccc(C)c3)nc3ccc(Cl)cc23)c1C [Compound 317]", "class B"],
  ["CCn1ncc(CN(C)C(=O)c2cc(-c3cccc(Cl)c3)nc3ccc(F)cc23)c1C [Compound 368]", "class A"],
  ["CCn1ncc(CN(C)C(=O)c2nc(-c3cccc(Cl)c3)nc3ccc(F)cc23)c1C [Compound 309]", "class A"],
  ["CCn1ncc(CN(C)C(=O)c2nc(-c3cc(-c4ncon4)n(C)n3)nc3ccc(Cl)cc23)c1C [Compound 450]", "class A"],
  ["CNCCNc1ccc(-c2cc(C(=O)N(C)Cc3onc(C4CC4)c3C)c3cc(Cl)ccc3n2)nc1C [Compound 599]", "class B"]
]}

Which bin should I file CNc1[nH]nc2cc(C)c(-c3nc(C(=O)N(C)Cc4cnc(C5CC5)n4C)c4cc(COC)ccc4n3)cc12 [Compound 617] under?
class C

Hello team, could you let me know which band the following molecule falls into: CCn1ncc(CN(C)C(=O)c2nc(-c3cnn(C)c3)nc3ccc(Cl)cc23)c1C [Compound 339]
class A

Please indicate the class for CCn1ncc(CN(C)C(=O)c2nc(-c3cc4n[nH]cc4cc3Cl)nc3ccc(Cl)cc23)c1C [Compound 7] based on its pIC50.
class C

Band for the recorded pIC50 of CCn1ncc(CN(C)C(=O)c2cc(-c3cnc(OCCNC)cn3)nc3ccc(Cl)cc23)c1C [Compound 413] ?
class A

For the record CCc1onc(CN(C)C(=O)c2cc(-c3ccc(NCCNC)c(C)n3)nc3ccc(Cl)cc23)c1C [Compound 548] , report the class its pIC50 corresponds to.
class A

# bin label for CCn1ncc(CN(C)C(=O)c2nc(N3CCc4[nH]c(C)nc4C3)nc3ccc(Cl)cc23)c1C [Compound 159]
class A

Category of CCn1ncc(CN(C)C(=O)c2nc(-c3cc(Cl)cc(NC(=O)NC)c3)nc3ccc(Cl)cc23)c1C [Compound 34] , please.
class C

Bin? CCn1ncc(CN(C)C(=O)c2nc(-c3cc(NC)c4cn[nH]c4c3)nc3ccc(Cl)cc23)c1C [Compound 551]
class C

---

target: EP300 (P300(1048-1664)) (Homo sapiens, UniProt Q09472); construct: P300(1048-1664); assay: Biochemical assay for EP300, SAMDI; details: EP300, SAMDI; read-out: EP300 Biochemistry IC50
Sequence (Q09472 1048-1664): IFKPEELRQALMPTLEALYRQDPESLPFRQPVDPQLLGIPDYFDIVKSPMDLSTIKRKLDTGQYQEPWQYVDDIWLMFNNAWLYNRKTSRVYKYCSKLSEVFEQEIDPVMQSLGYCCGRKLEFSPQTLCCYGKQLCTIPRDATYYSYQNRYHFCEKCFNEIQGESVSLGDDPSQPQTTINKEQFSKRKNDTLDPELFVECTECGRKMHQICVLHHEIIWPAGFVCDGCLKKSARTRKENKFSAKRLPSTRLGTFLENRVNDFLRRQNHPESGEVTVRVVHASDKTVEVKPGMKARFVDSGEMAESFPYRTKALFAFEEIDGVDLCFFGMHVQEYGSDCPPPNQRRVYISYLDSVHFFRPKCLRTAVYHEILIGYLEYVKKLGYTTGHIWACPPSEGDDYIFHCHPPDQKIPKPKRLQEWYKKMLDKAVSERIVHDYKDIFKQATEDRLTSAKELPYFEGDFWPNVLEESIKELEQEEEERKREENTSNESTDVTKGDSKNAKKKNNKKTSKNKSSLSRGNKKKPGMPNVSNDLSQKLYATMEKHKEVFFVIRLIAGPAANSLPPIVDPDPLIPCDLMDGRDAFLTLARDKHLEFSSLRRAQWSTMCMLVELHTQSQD
Threshold check on IC50: strictly below 200 nM is label 1; on or above 200 nM is label 0.

{"columns": ["Chemical string", "Assayed target", "Class assignment"],
 "data": [
  ["CCn1ncc(CN(C)C(=O)c2nc(-c3cccc(N)n3)nc3ccc(Cl)cc23)c1C", "EP300 (P300(1048-1664)) (Homo sapiens, UniProt Q09472)", "label 0"]
]}

Hello, I'm reviewing records and need to know if IC50 of Cc1nc(-c2cc(C(=O)N(C)Cc3cnn(CC(F)(F)F)c3C)c3cc(Cl)ccc3n2)ccc1NCCN(C)C is below 200 nM. Could you check?
label 1

Please let me know if CCn1ncc(CN(C)C(=O)c2nc(-c3ccc(OCCNC)c(Cl)c3)nc3ccc(C4COC4)cc23)c1C shows IC50 below 200 nM.
label 0

Item CCn1ncc(CN(C)C(=O)c2nc(-c3ccc(NC4CCOCC4)c(C)c3)nc3ccc(Cl)cc23)c1C : IC50 beneath 200 nM, strictly?
label 1

# strict comparison: is reported IC50 < 200 nM? input = CCn1ncc(CN(C)C(=O)c2nc(-c3cc(Cl)cc(CN4CCNCC4)c3)nc3ccc(Cl)cc23)c1C
label 0

Item CCn1ncc(CN(C)C(=O)c2cc(-c3ccc(NCC(F)(F)CNC)c(C)n3)nc3ccc(Cl)cc23)c1C : IC50 beneath 200 nM, strictly?
label 1

Criterion: IC50 strictly below 200 nM. Is it met by CCc1ncc(CN(C)C(=O)c2cc(-c3ccc(NC4CCOCC4)c(C)n3)nc3ccc(Cl)cc23)n1C ?
label 1

Criterion: IC50 strictly below 200 nM. Is it met by CCn1ncc(CN(C)C(=O)c2nc(-c3ccc(OCCCNC(=O)OC(C)(C)C)c(OC)c3)nc3ccc(Cl)cc23)c1C ?
label 0

Strictly below 200 nM: is that where IC50 of CCc1ncc(CN(C)C(=O)c2cc(-c3ccc(NCCN(C)C)c(C)n3)nc3ccc(Cl)cc23)n1C sits?
label 1

---

target: CREBBP (1084-1701) (Homo sapiens, UniProt Q92793); construct: measured in the following biochemical assay using CREBBP (1084-1701); purchased; experiment: Biochemical assay for CREBBP (1084-1701), SAMDI; settings: SAMDI, read-out: CREBBP Biochemistry IC50
Experimental endpoint: pIC50
Note on pIC50: it is the negative log10 of concentration, concentration in mol/L.

Check out these entries, answers already filled in.
{"columns": ["Compound", "Assay result"],
 "data": [
  ["CCn1ncc(CN(C)C(=O)c2cc(-c3ccc(NCCNC)c(C)n3)nc3ccc(C4CC4)cc23)c1C [Compound 449]", 7.30],
  ["CCc1ncc(CN(C)C(=O)c2nc(-c3cc(N)c4c[nH]nc4c3)nc3ccc(Cl)cc23)n1C [Compound 546]", 7.86],
  ["CCn1ncc(CN(C)C(=O)c2cc(-c3csc(CNC)n3)nc3ccc(Cl)cc23)c1C [Compound 138]", 4.92],
  ["CCn1ncc(CN(C)C(=O)c2cc(-n3cc4c(n3)CNCC4)nc3ccc(Cl)cc23)c1C [Compound 168]", 4.74],
  ["Cc1c(CN(C)C(=O)c2nc(-c3ccccc3Cl)nc3ccc(Cl)cc23)cnn1CC(F)(F)F [Compound 337]", 6.20]
]}

Proceed to the following item.
Reported pIC50, compound CCn1ncc(CN(C)C(=O)c2nc(-c3cc(C)cc(NC4CCNCC4)c3)nc3ccc(Cl)cc23)c1C [Compound 55] : ____
7.68

---

system: H3K18Ac in HB-CLS-2 cells; test: H3K18AC in-cell western (ICW) assay; type: cell-based; settings: H3K18Ac in-cell western; read-out: CREBBP ICW IC50
Experimental endpoint: pIC50
Lab note: report pIC50 as minus log10 of the concentration in molar units, number only.

Recorded pIC50, per entry:
{"columns": ["Molecule", "Experimental endpoint", "Assay result"],
 "data": [
  ["CCn1ncc(CN(C)C(=O)c2nc(-c3cc(C)nc(NCCN(C)C)c3)nc3ccc(Cl)cc23)c1C [Compound 469]", "pIC50", 7.25],
  ["CCn1ncc(CN(C)C(=O)c2cc(-c3ccc(NCCNC)c(C)n3)nc3ccc(Cl)cc23)c1C1CC1", "pIC50", 6.33]
]}

Please tell me: pIC50 of CCn1ncc(CN(C)C(=O)c2cc(-c3ccc(NC4CN(CC(F)(F)F)C4)c(C)n3)nc3ccc(Cl)cc23)c1C , system H3K18Ac in HB-CLS-2 cells?
6.76

What is its pIC50 for H3K18Ac in HB-CLS-2 cells? Entry: CCn1ncc(CN(C)C(=O)c2nc(-c3cc(Cl)cc(NC(=O)NC)c3)nc3ccc(Cl)cc23)c1C
6.57

Param readout = pIC50; param system = H3K18Ac in HB-CLS-2 cells; param query = CCn1ncc(CN(C)C(=O)c2nc(-c3cc(Cl)cc(CNC)c3)nc3ccc(Cl)cc23)c1C ; response: value
5.92

For H3K18Ac in HB-CLS-2 cells, provide pIC50 of CCn1ncc(CN(C)C(=O)c2cc(-c3ccc(OCC(=O)NC)c(OC)c3)nc3ccc(Cl)cc23)c1C please.
5.44

What pIC50 appears in the records for this molecule with H3K18Ac in HB-CLS-2 cells? CCn1ncc(CN(C)C(=O)c2cc(-c3ccc(NCCNC)c(C)n3)nc3ccc(C(=O)N(C)C)cc23)c1C
4.70

Kindly state the measured pIC50 obtained for CCn1ncc(CN(C)C(=O)c2cc(-c3ccc(OCC(O)CNC)c(C)n3)nc3ccc(Cl)cc23)c1C (centres unmarked) with H3K18Ac in HB-CLS-2 cells.
6.79

What reported pIC50 corresponds to CCc1nc(-c2cc(C(=O)N(C)Cc3cnc(CC)n3C)c3cc(COC)ccc3n2)ccc1NCCN(C)C on H3K18Ac in HB-CLS-2 cells?
6.76

Given the entry CCn1ncc(CN(C)C(=O)c2nc(-c3ccc(OCCCNC)c(C)c3C)nc3ccc(Cl)cc23)c1C , what pIC50 was observed with H3K18Ac in HB-CLS-2 cells?
6.95

Form entry - test system: H3K18Ac in HB-CLS-2 cells; read-out: pIC50; molecule: CCn1ncc(CN(C)C(=O)c2nc(-c3ccc(OCCCNC)cc3C)nc3ccc(Cl)cc23)c1C
6.57
